Origin of measurements: ChEMBL document CHEMBL1139562

tested.target: Mitochondrial complex V; ATP synthase (Bos taurus) (UniProt P05632+P00829+P05631+P05630)
assay.text: Inhibitory activity against mitochondrial ATP synthase from bovine
Format: protein-complex assay
metric: log10 of Inhibition (log10 of the value in nM)

smiles.str | log10 of Inhibition
S=C(Nc1ccc(Cl)cc1Cl)O[C@@H](Cn1ccnc1)c1ccc(Cl)cc1Cl | 1.28
S=C(Nc1ccc(Cl)cc1Cl)O[C@H](Cn1ccnc1)c1ccc(Cl)cc1Cl | 3.34
N#Cc1cccc(C(=O)N/C(=N\[C@H](Cn2ccnc2)c2ccc(Cl)cc2Cl)Nc2ccc(Cl)cc2)c1 | 1.26
S=C(Nc1ccc(Cl)cc1)O[C@@H](Cn1ccnc1)c1ccc(Cl)cc1Cl | 2.15
S=C(Nc1ccc(Cl)cc1)O[C@H](Cn1ccnc1)c1ccc(Cl)cc1Cl | 3.56
